Reported remaining activity at 1 µM values follow for various compounds
Tgt: CDK4/CyclinD1 (Homo sapiens, UniProt P11802)
Sequence (P11802 whole entry, species assumed): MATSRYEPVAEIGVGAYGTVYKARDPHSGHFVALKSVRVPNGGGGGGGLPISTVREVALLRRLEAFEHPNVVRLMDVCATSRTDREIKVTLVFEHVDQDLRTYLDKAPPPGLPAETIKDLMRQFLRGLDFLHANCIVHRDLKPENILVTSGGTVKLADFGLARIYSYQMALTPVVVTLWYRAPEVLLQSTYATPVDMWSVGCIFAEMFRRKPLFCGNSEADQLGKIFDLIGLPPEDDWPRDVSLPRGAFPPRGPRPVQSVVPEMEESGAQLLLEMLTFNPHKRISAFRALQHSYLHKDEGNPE
Sequence (P24385 whole entry partner, species assumed): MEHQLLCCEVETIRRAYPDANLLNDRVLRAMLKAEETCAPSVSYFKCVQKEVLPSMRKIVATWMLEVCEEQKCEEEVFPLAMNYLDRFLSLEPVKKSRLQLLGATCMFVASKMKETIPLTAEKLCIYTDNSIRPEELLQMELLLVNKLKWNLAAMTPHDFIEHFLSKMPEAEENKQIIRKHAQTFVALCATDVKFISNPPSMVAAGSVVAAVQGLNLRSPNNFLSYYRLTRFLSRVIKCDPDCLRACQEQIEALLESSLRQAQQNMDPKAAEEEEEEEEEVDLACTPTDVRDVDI
Measurement notes: ADP Glo kinase assay, CDK4/CyclinD1
Assay type: biochemical
Test context: compound at 1 μM, read-out: Residual enzymatic activity (%) at 1 μM, CDK4 D1

Compound	Tgt	remaining activity at 1 µM [%]
CC(=O)N1CCN(c2ccc(Nc3nccc(-c4cnc5ccccn45)n3)cn2)CC1 [Compound 41]	CDK4/CyclinD1 (Homo sapiens, UniProt P11802)	53
CS(=O)(=O)N1CCN(c2ccc(Nc3nccc(-c4cnc5ccc(-c6ccco6)cn45)n3)cn2)CC1 [Compound 51]	CDK4/CyclinD1 (Homo sapiens, UniProt P11802)	96
CCOc1ccc(Nc2ncc(F)c(-c3cnc4ccc(-c5ccccc5)cn34)n2)cn1 [Compound 31]	CDK4/CyclinD1 (Homo sapiens, UniProt P11802)	95
CS(=O)(=O)N1CCN(c2ccc(Nc3nccc(-c4cnc5ccc(-c6cccnc6)cn45)n3)cn2)CC1 [Compound 19]	CDK4/CyclinD1 (Homo sapiens, UniProt P11802)	83
c1ccc(-c2ccc3ncc(-c4ccnc(Nc5ccc(NC6CCOCC6)nc5)n4)n3c2)cc1 [Compound 58]	CDK4/CyclinD1 (Homo sapiens, UniProt P11802)	33
CC(=O)N1CCN(c2ccc(Nc3nccc(-c4cnc5ccc(-c6ccccc6)cn45)n3)cn2)CC1 [Compound 45]	CDK4/CyclinD1 (Homo sapiens, UniProt P11802)	91
Brc1ccc2ncc(-c3ccnc(Nc4ccc(N5CCCC5)nc4)n3)n2c1 [Compound 26]	CDK4/CyclinD1 (Homo sapiens, UniProt P11802)	92
CN1CCN(c2ccc(Nc3nccc(-c4cnc5ccc(-c6cnn(C)c6)cn45)n3)nc2)CC1 [Comparator compound B, reference compound]	CDK4/CyclinD1 (Homo sapiens, UniProt P11802)	76
CC(=O)N1CCN(c2ccc(Nc3ncc(C)c(-c4cnc5ccccn45)n3)cn2)CC1 [Compound 11]	CDK4/CyclinD1 (Homo sapiens, UniProt P11802)	21
c1ccc(-c2ccc3ncc(-c4ccnc(Nc5ccc(N6CCCC6)nc5)n4)n3c2)cc1 [Compound 27]	CDK4/CyclinD1 (Homo sapiens, UniProt P11802)	97
CC(C)N1CCN(c2ccc(Nc3nccc(-c4cnc5ccc(-c6ccncc6)cn45)n3)cn2)CC1 [Compound 40]	CDK4/CyclinD1 (Homo sapiens, UniProt P11802)	57
CC(=O)N1CCN(c2ccc(Nc3nccc(-c4cnc5ccc(-c6cccc7[nH]ccc67)cn45)n3)cn2)CC1 [Compound 49]	CDK4/CyclinD1 (Homo sapiens, UniProt P11802)	92
CN(C)c1ccc(Nc2nccc(-c3cnc4ccc(Br)cn34)n2)cn1 [Compound 65]	CDK4/CyclinD1 (Homo sapiens, UniProt P11802)	86
Cc1cnc(Nc2ccc(N3CCN(C)CC3)nc2)nc1-c1cnc2ccc(-c3ccccc3)cn12 [Compound 50]	CDK4/CyclinD1 (Homo sapiens, UniProt P11802)	94
CCS(=O)(=O)N1CCN(c2ccc(Nc3nccc(-c4cnc5ccc(Br)cn45)n3)cn2)CC1 [Compound 59]	CDK4/CyclinD1 (Homo sapiens, UniProt P11802)	52
O=C(c1ccc(Nc2ncc(F)c(-c3cnc4ccc(-c5ccccc5)cn34)n2)cn1)N1CCCCC1 [Compound 32]	CDK4/CyclinD1 (Homo sapiens, UniProt P11802)	91
